meta.source: PubChem BioAssay AID1508591

Details: rat; liver microsomes; pH 7.4; 15.0 min; 1.0 µM
So I've got a bunch of compounds here, and I need their half-life values.
Numbers only; they are read as min.

**Q:** Recorded half-life of COc1cc(C2c3c(oc4cc(C)c(C)cc4c3=O)C(=O)N2CCCN2CCOCC2)ccc1O (stereo not given) , please.
**A:** 12.7

**Q:** Also, CC1=C(C(=O)Nc2ccccc2)C(c2ccccc2Br)N=C(Nc2nc3ccccc3o2)N1 (stereo not given) please.
**A:** 27

**Q:** Moving on to "CC(=O)c1c(C)[nH]c(C(=O)Nc2cccc(S(=O)(=O)N3CCCCC3)c2)c1C"
**A:** 1.7

**Q:** Can you check "COc1cccc(NC(=O)c2cc(-c3ccc(C)c(C)c3)nc3ccccc23)c1" next?
**A:** 12

**Q:** One more compound: "COc1ccc2[nH]c(C[C@@H]3C[C@@H](C(C)C)[C@H](CNCc4ccccc4O)C=C3C)nc2n1"
**A:** 1.85

**Q:** Continue with "CCc1ccc(NC(=O)c2[nH]c(C)c(C(C)=O)c2C)cc1S(=O)(=O)Nc1ccc(C#N)cc1"
**A:** 14.7

**Q:** Field entry: "CN1CCN(Cc2ccc(-c3ccc(C(C)(C)C#N)cc3)nc2)CC1"
**A:** 24.6

**Q:** Thanks! And "Cc1nn2c(c1-c1ccccc1-c1ccccc1)N(Cc1ccccc1)CCC2" ?
**A:** 1.23

###

Exercise: for every item that follows, state its recorded half-life.
Conditions: rat; liver microsomes; pH 7.4; 15.0 min; 1.0 µM
# number only, unit min dropped from output

**Q:** GET /values?readout=half-life&item= Cc1ccc(C)c(S(=O)(=O)NCC2CN(Cc3ccccc3)CCO2)c1 (stereo not given)
**A:** 1.6

**Q:** Same thing, different compound: "CCCCOc1ccc(CNC(=O)c2cc3n(n2)CCCN(Cc2ccc(C)cc2)C3=O)cc1"
**A:** 4.33

**Q:** Queued: "CCCc1oc2ccc(NS(=O)(=O)c3ccc(OC)cc3)cc2c1C(=O)OCC"
**A:** 1.37

**Q:** Also need "c1cc(-c2cc(-c3ccncc3)c3cncn3c2)c2cc[nH]c2c1" , thanks.
**A:** 5.63

**Q:** Try "N#Cc1nc(-c2cccc3ccccc23)oc1NCc1ccccc1" next.
**A:** 8.6

**Q:** Again, but for "O=c1[nH]c(C2CCN(CC3CCCCC3)CC2)nn1Cc1ccccc1"
**A:** 25.3

**Q:** Proceed to Cc1cccc(S(=O)(=O)c2cn(Cc3ccccc3)c3cc(N4CCCCC4C)c(F)cc3c2=O)c1 (stereo not given)
**A:** 2

###

Would you mind telling me the reported half-life of each entry?
Conditions: rat; liver microsomes; pH 7.4; 15.0 min; 1.0 µM
Respond with the bare value in min.

**Q:** Would you kindly share the measured half-life for "COc1ccccc1Nc1ccnc(N2CCN(C(=O)c3ccc(C)cc3)CC2)n1" ?
**A:** 5.68

**Q:** What would you report for "Cc1ccc(-c2ccc(CNc3nc(-c4ccccc4C(C)C)ncc3C)cc2)cn1" ?
**A:** 4.28

**Q:** Okay, and O=C1Nc2ccccc2C1Cc1cc(Cl)c(O)c(Cl)c1 (stereo unspecified) ?
**A:** 24

**Q:** Please give the result for "CCc1ccc(S(=O)(=O)Nc2cnccc2C(=O)Nc2nc(-c3ccccc3)cs2)cc1" too.
**A:** 4.4

###

Settings: rat; liver microsomes; pH 7.4; 15.0 min; 1.0 µM
Is half-life at least 5 min? Then Condition met. If not, Condition not met.

**Q:** Check this compound for half-life at or above 5 min: "Cc1ccc(-c2cc(C(=O)NCc3cnn(C)c3)c3cc(Br)ccc3n2)cc1"
**A:** Condition met

**Q:** Another compound to check: "Cc1cnc(-c2ccccc2C(F)F)nc1NCc1ccc(-c2cccnc2)cc1"
**A:** Condition met

**Q:** Record: CC(C)OC(=O)c1ccnc2cc(C(OCCN3CCCCC3)c3ccccc3Cl)sc12 (stereo not given)
**A:** Condition not met

**Q:** Cc1cnc(-c2ccccc2C(C)C)nc1NCC1CCN(c2cccnc2)C1 (stereo not given) , same question.
**A:** Condition not met

**Q:** Okay, and N=c1c2c(ncn1-c1ccccc1)Oc1ccc3ccccc3c1C2c1ccc2c(c1)CCO2 (stereo not given) ?
**A:** Condition met

**Q:** Same read-out for "Cc1ccc(S(=O)(=O)Nc2cnccc2C(=O)Nc2ccc(-c3nn[nH]n3)cc2)cc1" ?
**A:** Condition met

**Q:** Entry to check: "CCOC(=O)c1cnc2ccc(-c3cncc(NS(=O)(=O)c4ccccc4)c3)cn12"
**A:** Condition met

**Q:** Subsequent entry: "O=C(NCCc1ccccc1)C1CCN(c2nc(-c3ccc(Br)cc3)cs2)CC1"
**A:** Condition not met

**Q:** Next record, please: "CCc1ccc(NC(=O)c2[nH]c(C)c(C(C)=O)c2C)cc1[S+](=O)([O-])Nc1ccccc1C#N"
**A:** Condition met

**Q:** Input "Oc1ccc(CNc2ccccc2F)c2cccnc12"
**A:** Condition not met

**Q:** Could you do the same for CC(Nc1ncnc2c1cnn2-c1cccc(Cl)c1)c1ccccc1 (stereo not given) , please?
**A:** Condition met

**Q:** And then "O=C1/C(=C\c2ccccc2)C[C@@]2(O)C3Cc4ccc(O)c5c4[C@@]2(CCN3CC2CC2)[C@H]1O5" , what is it?
**A:** Condition not met

**Q:** Could you do the same for "CC1=Nc2cc(C(=O)NCCc3ccccc3)ccc2Sc2c(C)ccc(C)c21" , please?
**A:** Condition not met

**Q:** Now give it for CC[C@H]1CN2CCC3CC(OC)C(OC)CC3[C@@H]2C[C@@H]1C[C@H]1NCCC2=C1CC(OC)=C(O)C2 (stereo not given in full) too.
**A:** Condition met

**Q:** // repeat for "Cc1cc(-c2nnc3n2CCCCC3)c(C)n1-c1cccc2ccccc12" and report
**A:** Condition not met

**Q:** Same question for "CCCc1nnc(NC(=O)c2nc(S(=O)(=O)Cc3ccc(C)cc3)ncc2Cl)s1" please.
**A:** Condition met

**Q:** // next record "Nc1nc(N)c2c(OCC3CCN(Cc4ccccc4F)CC3)cccc2n1"
**A:** Condition met

**Q:** Subsequent entry: "N#Cc1cccc(S(=O)(=O)Nc2cnccc2C(=O)Nc2nc(-c3ccccc3)cs2)c1"
**A:** Condition met

**Q:** What about "Cc1cnc(-c2ccccc2C2COC2)nc1NCc1ccc(-n2ccnn2)cc1" ?
**A:** Condition met

**Q:** Same question for "NCC(=O)Nc1ccc(Cl)cc1C(=O)c1ccc[nH]1" please.
**A:** Condition met

**Q:** Also need "Cc1cc(C)nc(NC(=S)N2CCN(c3nccc(C(F)(F)F)n3)CC2)c1" , thanks.
**A:** Condition met

**Q:** Another compound to look at: "N#Cc1cnccc1-c1nc(Nc2ccc(F)c(F)c2)c2ccccc2n1"
**A:** Condition met

**Q:** // next record "O=C(Cc1ccc(Cl)c(Cl)c1)Nc1ccc(S(=O)(=O)Nc2cccc(O)c2)cc1"
**A:** Condition met

**Q:** Next entry: "COC(=O)Nc1nc2ccc(C(=O)c3ccccc3)cc2[nH]1"
**A:** Condition met

**Q:** One more compound: "Cc1cccc(C)c1C(=O)Nc1cccc([S+](=O)([O-])N(C)C)c1"
**A:** Condition met

**Q:** And "CC(=O)N1CCC(NC(=O)c2nc(-c3ccccc3)cc3[nH]ccc23)CC1" ?
**A:** Condition met

**Q:** And "CNCc1ccc(-c2cc(-c3nc(-c4ccc(S(=O)(=O)C(C)C)cc4)cnc3N)on2)cc1" ?
**A:** Condition met

**Q:** Now give it for "Cc1cc(C)c(CNC(=O)c2nc(-c3ccc(CN(C)C)cc3)cc3c2ccn3C(C)C)c(=O)[nH]1" too.
**A:** Condition met

**Q:** Try this compound too: "O=C(Nc1ccc2c(N3CCCCC3)ncnc2c1)c1cc(F)cc(F)c1"
**A:** Condition not met

**Q:** # repeat for "CCN1C(=O)c2ccccc2[S@](=O)c2ccc(C(=O)N[C@H](C)c3ccc(Br)cc3)cc21"
**A:** Condition met

**Q:** Queued: "O=C1NC(=O)C(c2cnc3ccccn23)=C1c1cn2c3c(cccc13)CN(C(=O)N1CCOCC1)CC2"
**A:** Condition met

**Q:** Next: "O=C(CCCc1ccc2cccnc2n1)NCc1cc(-c2ccc(F)c(C(F)(F)F)c2)no1"
**A:** Condition met

**Q:** Lookup "Nc1ncnc2c1c(-c1ccc(Oc3ccccc3)cc1)cn2C1CCCC1"
**A:** Condition met

**Q:** Moving on to the next compound: CC(C)(C)C1CCc2nc(NC(=O)c3cccc(Cl)c3)sc2C1 (stereo not given)
**A:** Condition met

**Q:** What about "Fc1cc(Nc2nc(-c3ccncc3)nc3ccccc23)ccc1-c1ccc2[nH]ncc2c1" ?
**A:** Condition met

**Q:** Cool, now "Cc1cccc(-n2c(C)cc(C=C(C#N)C#N)c2C)c1"
**A:** Condition not met

**Q:** Then what about the compound "Cc1ccnc(NC(=S)N2CCN(c3cccc(Cl)c3Cl)CC2)c1" ?
**A:** Condition not met

**Q:** Param item: "O=C(CSc1nc(-c2ccc(F)cc2)[nH]c1-c1ccc(F)cc1)Nc1ccc2c(c1)OCCO2"
**A:** Condition not met

**Q:** And for "N#Cc1nc(-c2cccc3ccccc23)oc1Nc1ccccc1" ?
**A:** Condition met
